All values here come from PubChem BioAssay AID1159580.

- Test summary: chemical genetic growth profiling, strain panel (AID 1159580);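 also: tested at 20 µM; growth read once vehicle control cultures reached saturation at 30 °C; 1 = growth at the plate median or of vehicle wells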
- Test conditions: S. cerevisiae deletion strains, growth OD, locus YMR223W, strain ubp8, stronger effect = lower value
Screen size: about 5,500 compounds; about 2,000 (36%) were called active. Not shown: some 18% with an inconclusive outcome. The list shows a part of the results.
Test readout: normalized growth
Numbers only.

Worked examples follow.
CN(Cc1cc(Br)cc(Br)c1N)C1CCCCC1 = 1
C[C@@H]1CC2C3CCC4=CC(=O)C=C[C@]4(C)[C@@]3(F)[C@@H](O)C[C@]2(C)[C@@]1(O)C(=O)COP(=O)(O)O (some centres undefined) = 1.01
CC1(C)C2CC(=O)O[C@@]3(C)C4=CC(=O)O[C@@H](c5ccoc5)[C@]4(C)CCC3[C@@]2(C)C=C[C@H]1O (some centres undefined) = 0.971

Continue with the compound presented below.
Retrieve normalized growth measured for CC[C@@H]1[C@@H](O)N2C3C[C@H]1C1C(O)[C@]4(C[C@@H]12)c1ccccc1N(C)[C@@H]34 (some centres undefined) and print it.
0.996

----------
Consider the following compounds; for each one, report its normalized growth.
- Test summary: chemical genetic growth profiling, strain panel (AID 1159580)
- Test conditions: S. cerevisiae deletion strains, growth OD, locus YER111C, strain swi4, stronger effect = lower value
In all, about 5,500 compounds went through this assay and about 2,000 (36%) were called active. About 18% were inconclusive and are not listed. The list shows a part of the results.
Answers are plain numbers.

Worked examples follow.
CCn1cc(C(=O)O)c(=O)c2ccc(C)nc21 = 0.966
COc1ccc(-c2cc(C(F)F)nn2-c2ccc(S(N)(=O)=O)cc2)cc1F = 0.999
CC1=CC(=O)CC(C)(C)C1(O)/C=C/C(C)=C\C(=O)O (stereo unspecified) = 1.02

Respectfully, I request normalized growth for each entry included below.
1. O=C(O)P(=O)(O)O
2. CCCN(CCC)C(=O)C(CCC(=O)O)NC(=O)c1ccccc1 (stereo unspecified)
3. O=C(O)CCC(=O)c1ccc(-c2ccccc2)cc1

0.98
0.996
0.988

----------
- Test summary: chemical genetic growth profiling, strain panel (AID 1159580)
- Test conditions: S. cerevisiae deletion strains, growth OD, locus YLR058C, strain SHM2, stronger effect = lower value
The whole screen tested about 5,500 compounds, of which about 2,000 (36%) were called active. Inconclusive results (about 18%) are left out. This is one part of the list.
Test readout: normalized growth
Give bare numbers.

CC1=C(/C=C/C(C)=C/C=C/C(C)=C/C=C/C=C(C)/C=C/C=C(C)/C=C/C2=C(C)CCCC2(C)C)C(C)(C)CCC1 = 1.01
O=C(O)CCCCCCCCCCCCC1C=CCC1 (stereo not given) = 0.902
CN(Cc1cc(Br)cc(Br)c1N)C1CCCCC1 = 1.01
NC(=O)N/N=C\c1ccc([N+](=O)[O-])o1 = 0.994

Retrieve normalized growth measured for COc1ccccc1-c1cc(=O)c2c(OC)cccc2o1 and print it.
0.96

----------
- Test summary: chemical genetic growth profiling, strain panel (AID 1159580)
- Test conditions: S. cerevisiae deletion strains, growth OD, locus YDR101C, strain arx1, stronger effect = lower value
About 2,000 (36%) of roughly 5,500 compounds were called active. Another 18% or so got no clear call; they are omitted. Some of the results follow.
Consider the following compounds; for each one, report its normalized growth.
Numbers only.

Worked examples follow.
O=C(O)c1cc(=O)c(O)c2c(O)c(O)ccc2c1 = 1.02
O=C(O)c1cc(O)c(O)c(O)c1 = 0.996
CC(=O)Oc1cc(C)c2c(c1C(OC(C)=O)OC(C)=O)Oc1c(c(C)c(OC(C)=O)c3c1C(OC(C)=O)OC3=O)OC2=O (configuration not stated) = 1.03
CC[C@]12CCCN3CCc4c(n(c5ccccc45)[C@](O)(C(=O)OC)C1)[C@@H]32 = 0.964
CCOP(=S)(OCC)Oc1ccc2c(C)c(Cl)c(=O)oc2c1 = 0.983
COc1cc2c3cc1Oc1cc(ccc1O)OC1c4c(cc(OC)c(O)c4Oc4ccc(cc4)CC3N(C)CC2)CCN1C (configuration not stated) = 0.983
CC[C@@H]1[C@@H](O)N2C3C[C@H]1C1C(O)[C@]4(C[C@@H]12)c1ccccc1N(C)[C@@H]34 (some centres not stated) = 0.981
CCCCC(CC)CN=C(N)NC(N)=NCCCCCCN=C(N)NC(N)=NCC(CC)CCCC (configuration not stated) = 0.0576
c1cc2c(cc1[C@H]1OC[C@H]3[C@@H]1CO[C@H]3c1ccc3c(c1)OCO3)OCO2 = 0.895
CC(Cc1ccc(O)c(O)c1)(NN)C(=O)O (configuration not stated) = 1

Respectfully, I request normalized growth for each entry included below.
1. COc1cc(C(=O)O)cc(OC)c1O
2. CCOc1ccc2c(c1)C(C)=CC(C)(C)N2

[0.972, 0.984]

----------
- Test summary: chemical genetic growth profiling, strain panel (AID 1159580);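 also: tested at 20 µM; growth read once vehicle control cultures reached saturation at 30 °C; 1 = growth at the plate median or of vehicle wells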
- Test conditions: S. cerevisiae deletion strains, growth OD, locus YHR129C, strain ARP1, stronger effect = lower value
Among all 5,500 compounds or so, about 2,000 (36%) were called active. Not shown: some 18% with an inconclusive outcome. Some of the results follow.
Consider the following compounds; for each one, report its normalized growth.
One number for each entry.

Worked examples follow.
Nc1c(Br)cc(Br)cc1CNC1CCC(O)CC1 (stereo not given) = 1.01
O=C1OCCN1/N=C\c1ccc([N+](=O)[O-])o1 = 0.992
CC[C@]12CCCN3CCc4c(n(c5ccccc45)C(=O)C1)[C@@H]32 = 0.993
CCOC(=O)CCCCCCCCCCCCC1C=CCC1 (stereo not given) = 0.0559
CCCSP(=O)(OCC)SCCC = 1.02

Respectfully, I request normalized growth for each entry included below.
1. CC(=O)OC/C=C(C)/C=C/C=C(C)/C=C/C1=C(C)CCCC1(C)C
2. COc1cc(/C=C/C(=O)O)cc(OC)c1OC
3. COc1cc(C(=O)O)cc(OC)c1O
4. CS(=O)(=O)OCCCCOS(C)(=O)=O
5. C=CCN1CC[C@]23c4c5ccc(O)c4OC2C(=O)CC[C@@]3(O)[C@H]1C5 (stereo not given in full)
6. Nc1nccs1
7. C[C@](N)(Cc1ccc(O)c(O)c1)C(=O)O
8. c1cc2c(cc1[C@H]1OC[C@H]3[C@@H]1CO[C@H]3c1ccc3c(c1)OCO3)OCO2

[1.02, 1.01, 0.997, 0.969, 1.01, 0.987, 0.985, 0.911]

Respectfully, I request normalized growth for each entry included below.
1. CO[C@@H]1[C@@H](O[C@@H]2O[C@H](C)[C@@H](O[C@H]3C[C@@](C)(O)[C@H](O)[C@H](C)O3)[C@H](N(C)C)[C@H]2O)[C@@H](CC=O)C[C@@H](C)[C@@H](O[C@H]2CC[C@H](N(C)C)[C@@H](C)O2)/C=C/C=C/C[C@H](C)OC(=O)C[C@H]1O
2. CC[C@@H]1[C@@H](O)N2C3C[C@H]1C1C(O)[C@]4(C[C@@H]12)c1ccccc1N(C)[C@@H]34 (stereo not given in full)

[1.02, 0.982]

----------
- Test summary: chemical genetic growth profiling, strain panel (AID 1159580);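 also: tested at 20 µM; growth read once vehicle control cultures reached saturation at 30 °C; 1 = growth at the plate median or of vehicle wells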
- Test conditions: S. cerevisiae deletion strains, growth OD, strain wtn01, stronger effect = lower value
Hit rate of the full screen: of about 5,500 compounds, about 2,000 (36%) were called active. Another 18% or so got no clear call; they are omitted. The list shows a part of the results.
Kindly apply the following: T if normalized growth is less than 1, F in every other case.

Is the reported normalized growth for Cc1cccc(CN2CCN(C(c3ccccc3)c3ccc(Cl)cc3)CC2)c1 (stereo not drawn) strictly below 1?
T

Is the reported normalized growth for CC1=C(/C=C/C(C)=C/C=C/C(C)=C/CO)C(C)(C)CCC1 strictly below 1?
F

Is the reported normalized growth for CCOc1ccc2c(c1)C(C)=CC(C)(C)N2 strictly below 1?
T

Is the reported normalized growth for C[C@@]12C(=O)OC(=O)[C@]1(C)C1CCC2O1 strictly below 1?
T

Is the reported normalized growth for C#C[C@]1(O)CCC2C3CCc4cc(O)ccc4C3CC[C@@]21C (stereo partly drawn) strictly below 1?
T

Is the reported normalized growth for CC1(C)CC2C1CCC1(C)OC1CCC2(C)O (stereo not drawn) strictly below 1?
F

Is the reported normalized growth for CCn1cc(C(=O)O)c(=O)c2ccc(C)nc21 strictly below 1?
T

Is the reported normalized growth for O=C(O)CCC(=O)c1ccc(-c2ccccc2)cc1 strictly below 1?
T

Is the reported normalized growth for CC(COc1ccccc1)N(CCCl)Cc1ccccc1 (stereo not drawn) strictly below 1?
F

Is the reported normalized growth for COc1ccc2c(c1O)-c1c(OC)c(OC)cc3c1[C@H](C2)N(C)CC3 strictly below 1?
F

----------
- Test summary: chemical genetic growth profiling, strain panel (AID 1159580);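 also: tested at 20 µM; growth read once vehicle control cultures reached saturation at 30 °C; 1 = growth at the plate median or of vehicle wells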
- Test conditions: S. cerevisiae deletion strains, growth OD, locus YLR027C, strain aat2, stronger effect = lower value
The campaign covered roughly 5,500 compounds. About 2,000 (36%) were called active. Inconclusive results (about 18%) are left out. Some of the results follow.
Test readout: normalized growth
Give bare numbers.

Worked examples follow.
CCOC(=O)c1ccc(N)cc1 = 1
O=C(O)CCC(=O)c1ccc(-c2ccccc2)cc1 = 0.978
O=C1O[C@@H](CO)[C@H](O)[C@@H](O)[C@@H]1O = 1.02
CC[C@@]1(C2O[C@@H](C3O[C@@](O)(CC)[C@H](C)C[C@@H]3C)C[C@@H]2C)CC[C@H]([C@]2(C)CCC3(C[C@H](O)[C@@H](C)[C@@H]([C@H](C)[C@@H](OC)[C@H](C)C(=O)O)O3)O2)O1 (stereo partly drawn) = 0.995
COc1ccc(C[C@H](N)C(=O)N[C@@H]2[C@@H](CO)OC(n3cnc4c(N(C)C)ncnc43)[C@@H]2O)cc1 (stereo partly drawn) = 0.997
C[C@](N)(Cc1ccc(O)cc1)C(=O)O = 1
CCOC(=O)CCCCCCCCCCCCC1C=CCC1 (stereo not drawn) = 0.973
Nc1nccs1 = 0.988
NC(=O)c1ccc(N)nc1 = 1.01
CO[C@@H]1[C@@H](O[C@@H]2O[C@H](C)[C@@H](O[C@H]3C[C@@](C)(O)[C@H](O)[C@H](C)O3)[C@H](N(C)C)[C@H]2O)[C@@H](CC=O)C[C@@H](C)[C@@H](O[C@H]2CC[C@H](N(C)C)[C@@H](C)O2)/C=C/C=C/C[C@H](C)OC(=O)C[C@H]1O = 1.01

Respectfully, I request normalized growth for each entry included below.
1. O=C(O)c1cc(=O)c(O)c2c(O)c(O)c(O)cc2c1
2. C[C@](N)(Cc1ccc(O)c(O)c1)C(=O)O

1. 0.718
2. 0.983
